B1: HDV Ribozyme (parent)
chain: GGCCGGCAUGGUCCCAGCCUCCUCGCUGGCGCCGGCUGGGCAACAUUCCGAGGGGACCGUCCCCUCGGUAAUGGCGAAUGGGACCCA

variants of: B1; experiment: self-cleavage, relative activity (ratio to wild type); higher = more cleavage; co-transcriptional
Assay metric: self-cleavage
Just the number, please, no unit attached.

In plain terms, G34U A45G has a documented self-cleavage of 0.0652

In plain terms, U27A G40U has a documented self-cleavage of 0.793

In plain terms, G1A C21A has a documented self-cleavage of 0.104

In plain terms, A16U A56G has a documented self-cleavage of 0.831

In plain terms, C58U U69G has a documented self-cleavage of 0.965

In plain terms, G28U C32G has a documented self-cleavage of 0.133

In plain terms, G5A A87U has a documented self-cleavage of 0.218

In plain terms, C14U A42U has a documented self-cleavage of 0.587

In plain terms, G52A U65G has a documented self-cleavage of 0.986

In plain terms, G6A G52U has a documented self-cleavage of 0.694

In plain terms, A8U U37C has a documented self-cleavage of 0.87
